Measured values drawn from paper PMC9306620 for this set.

assay: Part 2: food effect on plasma pharmacokinetics of the tablet formulation; assay type: in vivo, healthy participants; conditions: human, plasma, oral, 200 mg, Cmax, geometric LS mean, tablet 200 mg, fasted, part 2, analysis of variance, n = 13
Observable: Cmax (ng/mL)
Quick reminder: number only, in ng/mL, skip the unit.

Query: GET /values?readout=Cmax&item= C=C(C)[C@@H]1CC[C@]2(NCCN3CCS(=O)(=O)CC3)CC[C@]3(C)[C@H](CC[C@@H]4[C@@]5(C)CC=C(C6=CC[C@@](CF)(C(=O)O)CC6)C(C)(C)[C@@H]5CC[C@]43C)[C@@H]12
Result: 351

---

assay: Part 2: food effect on plasma pharmacokinetics of the tablet formulation; assay type: in vivo, healthy participants; details: human, plasma, oral, 200 mg, AUC0-t, geometric LS mean, tablet 200 mg, moderate fat, part 2, analysis of variance, n = 20
Observable: AUC(0-t) (ng·h/mL)
Quick reminder: number only, in ng·h/mL, skip the unit.

Query: GET /values?readout=AUC(0-t)&item= C=C(C)[C@@H]1CC[C@]2(NCCN3CCS(=O)(=O)CC3)CC[C@]3(C)[C@H](CC[C@@H]4[C@@]5(C)CC=C(C6=CC[C@@](CF)(C(=O)O)CC6)C(C)(C)[C@@H]5CC[C@]43C)[C@@H]12 [GSK3640254]
Result: 38500

---

type: in vivo, healthy participants; conditions: human, plasma, oral, 200 mg, AUC0-∞, geometric LS mean, capsule, moderate-fat meal, part 1, analysis of variance, n = 18
Observable: AUC(0-inf) (ng·h/mL)
Quick reminder: number only, in ng·h/mL, skip the unit.

Query: GET /values?readout=AUC(0-inf)&item= C=C(C)[C@@H]1CC[C@]2(NCCN3CCS(=O)(=O)CC3)CC[C@]3(C)[C@H](CC[C@@H]4[C@@]5(C)CC=C(C6=CC[C@@](CF)(C(=O)O)CC6)C(C)(C)[C@@H]5CC[C@]43C)[C@@H]12
Result: 36900

---

type: in vivo, healthy participants; conditions: human, plasma, oral, 200 mg, Cmax, geometric LS mean, tablet, moderate-fat meal, part 1, analysis of variance, n = 18
Observable: Cmax
Answer with the value and then the unit.

Query: GET /values?readout=Cmax&item= C=C(C)[C@@H]1CC[C@]2(NCCN3CCS(=O)(=O)CC3)CC[C@]3(C)[C@H](CC[C@@H]4[C@@]5(C)CC=C(C6=CC[C@@](CF)(C(=O)O)CC6)C(C)(C)[C@@H]5CC[C@]43C)[C@@H]12 [GSK3640254]
Result: 1310 ng/mL

---

assay: Part 2: food effect on plasma pharmacokinetics of the tablet formulation; format: in vivo, healthy participants; conditions: human, plasma, oral, 200 mg, Cmax, geometric LS mean, tablet 200 mg, moderate fat, part 2, analysis of variance, n = 20
Observable: Cmax (ng/mL)
Quick reminder: number only, in ng/mL, skip the unit.

Query: GET /values?readout=Cmax&item= C=C(C)[C@@H]1CC[C@]2(NCCN3CCS(=O)(=O)CC3)CC[C@]3(C)[C@H](CC[C@@H]4[C@@]5(C)CC=C(C6=CC[C@@](CF)(C(=O)O)CC6)C(C)(C)[C@@H]5CC[C@]43C)[C@@H]12
Result: 1440

---

format: in vivo, healthy participants; conditions: human, plasma, oral, 200 mg, AUC0-t, geometric LS mean, tablet, moderate-fat meal, part 1, analysis of variance, n = 18
Observable: AUC(0-t)
Answer with the value and then the unit.

Query: GET /values?readout=AUC(0-t)&item= C=C(C)[C@@H]1CC[C@]2(NCCN3CCS(=O)(=O)CC3)CC[C@]3(C)[C@H](CC[C@@H]4[C@@]5(C)CC=C(C6=CC[C@@](CF)(C(=O)O)CC6)C(C)(C)[C@@H]5CC[C@]43C)[C@@H]12 [GSK3640254]
Result: 33800 ng·h/mL
